Each entry below lists one item and its recorded recovery at 10 µM value.
assay: Caco-2 (TC7) A-B Permeability test (pH 6.5/7.4); conditions: human, Caco-2, pH 6.5, Present Recovery 1st, A-B Permeability (TC7, pH 6.5/7.4), test concentration 1.0E−05 M, 1st replicate
Kindly provide the numeric value in % only, without the unit symbol.

# molecule, readout-units, recorded-measurement
records = [
    ("COc1cc2c(c(OC)c1OC)-c1ccc(OC)c(=O)cc1[C@@H](NC(C)=O)CC2 [Colchicine]", "%", 99),
]

Q) Reported recovery at 10 µM for CNC(=C[N+](=O)[O-])NCCSCc1ccc(CN(C)C)o1 [Ranitidine] : what is it?
A) 82

Q) Moving on to CC(CCc1ccccc1)NCC(O)c1ccc(O)c(C(N)=O)c1 (stereo not shown) [Labetalol]
A) 91

Q) // next record Cc1ccc(F)cc1C[C@H](C)Nc1cc[nH]c(=O)c1-c1nc2cc3c(cc2[nH]1)C(=O)N(CCN1CCCC1)C3 [compound (II)]
A) 50

---

target: ALK (Homo sapiens, UniProt Q9UM73); assay: ALK kinase assay (Kinase-Glo / AlphaScreen, purified NPM-ALK); type: biochemical; parameters: fused to the complete intracytoplasmic portion of ALK containing the functional tyrosine kinase domain; 6xHis; made in house; host or cells: insect cells; the other entry of the earlier key: NPM1 (P06748, Nucleophosmin); conditions: Table 1; read-out: ALK IC50;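 further: recombinant baculovirus-expressed ALK kinase domain, activity read either as leftover ATP by Kinase-Glo luminescence or as poly(Glu-Tyr) phosphorylation by anti-phosphotyrosine AlphaScreen proximity signal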
Sequence (Q9UM73 with tags, fused parts or gaps): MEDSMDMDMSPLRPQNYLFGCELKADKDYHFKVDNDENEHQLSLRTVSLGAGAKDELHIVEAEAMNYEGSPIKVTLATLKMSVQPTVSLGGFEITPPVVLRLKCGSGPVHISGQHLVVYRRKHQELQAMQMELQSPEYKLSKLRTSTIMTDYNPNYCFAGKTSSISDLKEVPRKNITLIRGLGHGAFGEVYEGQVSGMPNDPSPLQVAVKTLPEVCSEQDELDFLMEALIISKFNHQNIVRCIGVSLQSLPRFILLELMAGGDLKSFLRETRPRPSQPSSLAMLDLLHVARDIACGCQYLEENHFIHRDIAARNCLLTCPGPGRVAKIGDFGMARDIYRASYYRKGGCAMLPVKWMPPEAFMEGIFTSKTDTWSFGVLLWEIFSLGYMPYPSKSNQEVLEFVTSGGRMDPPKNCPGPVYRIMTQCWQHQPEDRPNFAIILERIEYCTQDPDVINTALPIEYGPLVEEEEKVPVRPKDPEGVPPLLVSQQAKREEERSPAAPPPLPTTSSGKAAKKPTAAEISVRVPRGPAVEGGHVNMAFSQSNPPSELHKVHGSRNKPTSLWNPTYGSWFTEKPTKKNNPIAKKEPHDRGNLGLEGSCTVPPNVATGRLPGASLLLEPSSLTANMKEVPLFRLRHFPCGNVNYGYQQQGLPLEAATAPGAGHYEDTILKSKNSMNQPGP
pIC50: −log10 of the molar value.
property: pIC50

# compound, pIC50
rows = [
    ("C[C@H](Cc1cccs1)Nc1cc[nH]c(=O)c1-c1nc2c(Cl)c3c(cc2[nH]1)C(=O)N(C1CCN(C)CC1)C3", "< 6.00"),
    ("Cc1ccsc1C[C@H](C)Nc1cc[nH]c(=O)c1-c1nc2cc3c(cc2[nH]1)CN(CCN1CCCC1)C3=O", "7.00 to 8.00"),
    ("Cc1ccccc1C[C@H](C)Nc1cc[nH]c(=O)c1-c1nc2cc3c(cc2[nH]1)C(=O)N(CCN1CCCC1)C3=O", "7.00 to 8.00"),
    ("Cc1ccsc1CC(C)Nc1cc[nH]c(=O)c1-c1nc2cc3c(cc2[nH]1)C(=O)N(CCCN1CCCC1)C3 (stereo not drawn)", "6.60 to 7.00"),
    ("CC(Cc1cccs1)Nc1cc[nH]c(=O)c1-c1nc2cc3c(cc2[nH]1)C(=O)N(C1CCN(C)CC1)C3=O (stereo not drawn)", "6.00 to 6.60"),
    ("C[C@H](Nc1cc[nH]c(=O)c1-c1nc2cc3c(cc2[nH]1)C(=O)N(CCCN1CCCC1)C3)[C@H](O)c1ccccc1", "6.60 to 7.00"),
    ("C[C@@H](Cc1cc(F)cc(F)c1F)Nc1cc[nH]c(=O)c1-c1nc2cc3c(cc2[nH]1)CN(CCN(C)C)C3=O [drawing 325]", "> 8.00"),
    ("Cc1ccc(N(C)C)cc1C[C@H](C)Nc1cc[nH]c(=O)c1-c1nc2cc3c(cc2[nH]1)CN(CCN1CCCC1)C3=O", "< 6.00"),
    ("C[C@@H](Cc1cccs1)Nc1cc[nH]c(=O)c1-c1nc2cc3c(cc2[nH]1)C(=O)N(C1CCN(C)CC1)C3", "6.60 to 7.00"),
    ("C[C@H](CN1Cc2cc3nc(-c4c(N[C@@H](C)Cc5sccc5Cl)cc[nH]c4=O)[nH]c3cc2C1=O)N(C)C", "> 8.00"),
]

Q) Need pIC50 of CCc1ccc(CC(C)Nc2cc[nH]c(=O)c2-c2nc3cc4c(cc3[nH]2)C(=O)N(CCCN2CCCC2)C4)s1 (stereo not drawn) , thanks.
A) < 6.00

Q) Now consider COc1ccc(C)c(C[C@H](C)Nc2cc[nH]c(=O)c2-c2nc3cc4c(cc3[nH]2)CN(CCN2CCCC2)C4=O)c1 .
A) 7.00 to 8.00

Q) What do you get for Cc1ccc(F)cc1C[C@H](C)Nc1cc[nH]c(=O)c1-c1nc2cc3c(cc2[nH]1)C(=O)N(CCN(C)C)C3=O ?
A) 6.60 to 7.00

Q) Also CCC(Cc1cccs1)Nc1cc[nH]c(=O)c1-c1nc2cc3c(cc2[nH]1)C(=O)N(CCCN1CCCC1)C3=O (stereo not drawn) , if possible.
A) 6.00 to 6.60

Q) Similarly, C[C@H](CN(C)C)N1C(=O)c2cc3nc(-c4c(N[C@@H](C)Cc5sccc5Cl)cc[nH]c4=O)[nH]c3cc2C1=O ?
A) 7.00 to 8.00
